Tested on: 786-0 renal
Assay notes: NCI tumour cell line growth inhibition, 48 h
Measured property: GI50

Req: Consider the compound shown here: Cc1ccc2nc3ccccc3c(NCc3ccc(Cl)cc3)c2c1 What is its recorded GI50?
Resp: 5.53 µM

Req: Repeat with COc1cc(-c2nc3ccccc3s2)ccc1OCCCCOc1cc2c(cc1OC)C(=O)N1CCC[C@H]1C=N2
Resp: 0.9 µM

Req: Repeat with c1ccc(-c2nn3c(c2-c2ccnc4cc(OCCN5CCOCC5)ccc24)CCC3)nc1
Resp: > 100 µM

Req: Repeat with COc1c(C(C)=O)c(OCCCCOc2c(C(C)=O)c(OC)c3ccoc3c2OC)c(OC)c2occc12
Resp: > 100 µM
